For each of the compounds below, state its Encapsulation Efficiency.
- method: Encapsulation efficiency of lipid nanoparticles (Quant-it Ribogreen RNA quantification assay)
- Type: physicochemical
- measurement-conditions: LNP encapsulating hEPO mRNA; Table 2
- Description: Briefly, a cationic lipid provided herein, DSPC, cholesterol, and PEG-lipid were solubilized in ethanol at a molar ratio of 50:10:38.5:1.5, and mRNA were diluted in 10 to 50 mM citrate buffer, pH=4. […] Lipid nanoparticle size were determined by dynamic light scattering using a Malvern Zetasizer Nano ZS (Malvern UK) using a 173° backscatter detection mode. […]
Hi! Could you send only the number? It should be in %, unit omitted.

Challenge: State the recorded Encapsulation Efficiency for this entry: CCCCC/C=C\C/C=C\CCCCCCCCC(CCCCCCCC/C=C\C/C=C\CCCCC)OC(=O)CCCN(C)C [MC3, dilinoleylmethyl-4-dimethylaminobutyrate, reference compound]
Response given: 98.5

Challenge: # get_value(readout='Encapsulation Efficiency', item= CCCCCCCCC(CCCCCC)COC(=O)CCCCCN(CCCCCC(=O)OCC(CCCCCC)CCCCCCCC)CCNCCO (stereo not drawn) [Compound A] )
Response given: 100.0

Challenge: Which Encapsulation Efficiency is listed for CCCCCCCCC(CCCCCC)COC(=O)CCCCCN(CCCCCC(=O)OCC(CCCCCC)CCCCCCCC)CCN(CCO)C1CCCCCCC1 (stereo not drawn) [Compound 6] ?
Response given: 96.6

Challenge: Any idea what its Encapsulation Efficiency is? The compound is CCCCCCCCC(CCCCCC)COC(=O)CCCCCN(CCCCCC(=O)OCC(CCCCCC)CCCCCCCC)CCN(CCCO)C1CCCCC1 (stereo not drawn) [Compound 9]
Response given: 93.3

Challenge: Bench note: what Encapsulation Efficiency did CCCCCCCCC(CCCCCC)COC(=O)CCCCCN(CCCCCC(=O)OCC(CCCCCC)CCCCCCCC)CCN(CCO)CCCC (stereo not drawn) [Compound C] show?
Response given: 96.9

Challenge: Can you look up the measured Encapsulation Efficiency of CCCCCCCCC(CCCCCC)COC(=O)CCCCCN(CCCCCC(=O)OCC(CCCCCC)CCCCCCCC)CCN(CCO)CCCCCC (stereo not drawn) [Compound D] for me?
Response given: 95.5
